# method summary: 14-day oral toxicity study toxicokinetics in Sprague-Dawley rats
# Format: in vivo
# condition parameters: male, rat, plasma, 1000 mg/kg/day, male, Day 0, 1,000 mg/kg/day, mean, read-out: AUC0-24 h
# Protocol: Repeated-dose PK (toxicokinetics) were obtained as part of the repeated oral dose toleration toxicity studies in rats and dogs. There was no further increase in the daily exposure parameters at 1,000 mg/kg relative to those from 200 mg/kg/day. There was no effect of gender on exposure and there was no increase in daily exposure parameters on Day 14 relative to those observed after the first dose.

>  <compound>
O=C(Nc1ccnc(C(F)(F)F)c1)c1cnn(-c2cccc3c(=O)[nH]ccc23)c1C(F)(F)F [Compound A]

>  <AUC(0-t) [µg·h/mL]>
1120

$$$$

====

# method summary: Serum and tumor levels after multiple oral doses in male OCI-LY3 tumor-bearing NSG mice
# Type: in vivo
# condition parameters: male, NSG, mouse, tumor/serum; once daily PO, dose not given (second group), Day 4, 24 h post dose; mean (SD); read-out: Tumor:serum ratio
measured quantity: Kp at 24 h

>  <entry smiles>
O=C(Nc1ccnc(C(F)(F)F)c1)c1cnn(-c2cccc3c(=O)[nH]ccc23)c1C(F)(F)F

>  <recorded measurement>
1.6

$$$$

====

# method summary: FIH study 67856633LYM1001 plasma pharmacokinetics
# Format: in vivo, human
# condition parameters: human, plasma, po, 200 mg, Cycle 2 Day 1, 200 mg capsule, oral daily administration; read-out: median Tmax

>  <entry smiles>
O=C(Nc1ccnc(C(F)(F)F)c1)c1cnn(-c2cccc3c(=O)[nH]ccc23)c1C(F)(F)F

>  <Tmax>
3 to 8 h

$$$$

====

# method summary: 14-day oral toxicity study toxicokinetics in Sprague-Dawley rats
# Type: in vivo
# condition parameters: female, rat, plasma, 30 mg/kg/day, female, Day 13, 30 mg/kg/day, mean, read-out: AUC0-24 h

>  <entry smiles>
O=C(Nc1ccnc(C(F)(F)F)c1)c1cnn(-c2cccc3c(=O)[nH]ccc23)c1C(F)(F)F

>  <AUC(0-t) / µg·h/mL>
451

$$$$

====

# method summary: Serum and tumor levels after multiple oral doses in male OCI-LY3 tumor-bearing NSG mice
# Assay type: in vivo
# condition parameters: male, NSG, mouse, serum, oral, 100 mg/kg, 100 mg/kg twice daily PO, Day 1 following first dose, 12 h post dose; mean (SD); read-out: Serum concentration
measured quantity: concentration at 12 h (µg/mL)

>  <compound>
O=C(Nc1ccnc(C(F)(F)F)c1)c1cnn(-c2cccc3c(=O)[nH]ccc23)c1C(F)(F)F [Compound A]

>  <recorded measurement>
13.3

$$$$

====

# method summary: Serum concentration after 28 days of oral dosing in male OCI-LY3 tumor-bearing NSG mice
# Assay type: in vivo
# condition parameters: mouse, 30 mg/kg BID PO 28 days, 8 h post last dose, mean

>  <entry smiles>
O=C(Nc1ccnc(C(F)(F)F)c1)c1cnn(-c2cccc3c(=O)[nH]ccc23)c1C(F)(F)F

>  <scale unit>
ng/mL

>  <concentration at 8 h>
14700

$$$$

====

# method summary: Preliminary food effect assessment at steady state
# Assay type: in vivo, human
# condition parameters: human, plasma, oral, 200 mg, 4 × 50 mg, fasted condition, steady state; N = 1
# Description: Preliminary food effect was assessed in 8 subjects at steady state: 2 subjects at 100 mg (2×50 mg), 1 subject at 400 mg (2×200 mg), 1 subject at 200 mg (4×50 mg) and 4 subjects at 300 mg (3×100 mg). In the fasting condition, JNJ-67856633 was administered after overnight fasting for at least 8 hours. In the fed condition, following an overnight fast of at least 8 hours, the subjects were given a high-fat meal 30 minutes before drug intake. […]
measured quantity: AUC (µg·h/mL)

>  <entry smiles>
O=C(Nc1ccnc(C(F)(F)F)c1)c1cnn(-c2cccc3c(=O)[nH]ccc23)c1C(F)(F)F

>  <scale unit>
µg·h/mL

>  <recorded measurement>
958

$$$$

These measurements were taken from patent US20240299376A1.
